The measurements presented in this section are drawn from ChEMBL document CHEMBL5108031.

- System: HEK293
- protocol-text: Antiproliferative activity against human HEK293 cells incubated for 72 hrs and measured by MTT assay
- Type: functional
Kindly supply the reported GI50 values for the records listed here.

Recall and state the measured GI50 for Cc1ccc(Cl)cc1-n1nnc(C(=O)Nc2ccc(SC#N)cc2)c1C .
91.2 µM

Fill in GI50 for record COc1cccc(-n2nnc(C(=O)Nc3ccc(SC#N)cc3)c2C)c1
> 100 µM

Name the recorded GI50 of the item CCCc1c(C(=O)Nc2ccc(SC#N)cc2)nnn1-c1ccccc1 in your answer.
> 100 µM

Return GI50 (reported value) for this molecule: Cc1c(C(=O)Nc2ccc(SC#N)cc2)nnn1-c1ccc(C(C)C)cc1
> 100 µM

Output GI50 of COCc1c(C(=O)Nc2ccc(SC#N)cc2)nnn1-c1ccc(C)cc1
> 100 µM

Give the reported GI50 for this molecule. Cc1ccc(Cl)c(-n2nnc(C(=O)Nc3ccc(SC#N)cc3)c2C)c1
> 100 µM

Please report GI50 for the following molecule: COc1cccc2c1C(=O)c1c(O)c3c(c(O)c1C2=O)C[C@@](O)(C(=O)CO)C[C@@H]3O[C@H]1C[C@H](N)[C@H](O)[C@H](C)O1
0.8 µM

Complete the entry with GI50 for Cc1ccc(-n2nnc(C(=O)Nc3ccc(SC#N)cc3)c2C)cc1C
> 100 µM
